IC50 by entry:
# Measurement target: COX-1 (Ovis aries)
# Sequence (P05979 25-600 limits assumed): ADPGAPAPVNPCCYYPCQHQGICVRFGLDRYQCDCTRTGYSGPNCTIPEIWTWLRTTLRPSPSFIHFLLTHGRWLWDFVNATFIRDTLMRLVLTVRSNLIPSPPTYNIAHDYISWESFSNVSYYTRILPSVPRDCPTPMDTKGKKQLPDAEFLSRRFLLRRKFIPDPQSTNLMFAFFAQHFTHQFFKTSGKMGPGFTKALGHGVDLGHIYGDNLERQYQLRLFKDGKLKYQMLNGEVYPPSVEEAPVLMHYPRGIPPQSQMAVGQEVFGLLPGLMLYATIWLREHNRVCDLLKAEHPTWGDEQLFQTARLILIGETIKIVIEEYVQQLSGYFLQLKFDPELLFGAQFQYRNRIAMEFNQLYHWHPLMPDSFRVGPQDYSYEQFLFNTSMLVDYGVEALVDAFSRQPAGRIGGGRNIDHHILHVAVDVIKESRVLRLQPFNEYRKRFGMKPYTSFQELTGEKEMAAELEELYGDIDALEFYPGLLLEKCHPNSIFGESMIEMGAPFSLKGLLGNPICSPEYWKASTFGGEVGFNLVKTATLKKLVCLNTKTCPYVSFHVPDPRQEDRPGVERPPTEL
# Assay overview: COX inhibitor screening assay kit, COX-1
# Format: biochemical
# Run conditions: three separate experiments
Output spec: scalar in µM, unitless text.

INSERT INTO results (compound, measure, data_value) VALUES
  ('COc1ccc(CN(Cc2ccc(F)cc2)CC2CCCO2)cc1CO (stereo not shown)', 'IC50', 7.62);

Entry COc1cccc(-c2nn(-c3ccccc3)cc2CN(C)CCc2cn[nH]c2)c1 — recorded IC50 = 10.6

Entry O=C(O)COc1ccc(Cl)cc1C1CC(=O)Nc2cc3[nH]ncc3cc21 (stereo not shown) — recorded IC50 = 9.19

Entry O=C(O)CC1COCCN1Cc1cccc(-c2ccccn2)c1 (stereo not shown) — recorded IC50 = 11.5
